This collection of values is drawn from ChEMBL document CHEMBL2401657.

# subject.of.test: Peroxisome proliferator-activated receptor gamma (Homo sapiens) (UniProt P37231)
# Sequence (whole entry): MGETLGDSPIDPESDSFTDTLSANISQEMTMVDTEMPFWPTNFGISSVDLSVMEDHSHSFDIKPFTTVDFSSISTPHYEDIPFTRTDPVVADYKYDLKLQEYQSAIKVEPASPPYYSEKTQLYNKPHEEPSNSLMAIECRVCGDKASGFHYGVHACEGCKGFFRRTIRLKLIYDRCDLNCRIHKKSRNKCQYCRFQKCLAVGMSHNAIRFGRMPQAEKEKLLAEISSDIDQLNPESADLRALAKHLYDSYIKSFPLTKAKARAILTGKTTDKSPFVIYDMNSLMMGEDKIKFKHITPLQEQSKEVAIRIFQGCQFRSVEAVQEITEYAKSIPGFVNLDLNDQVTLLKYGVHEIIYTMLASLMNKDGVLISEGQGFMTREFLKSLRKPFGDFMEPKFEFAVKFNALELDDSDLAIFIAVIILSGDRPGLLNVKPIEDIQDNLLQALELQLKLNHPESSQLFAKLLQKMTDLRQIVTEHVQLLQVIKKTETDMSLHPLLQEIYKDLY
# assay.info: Transactivation of human PPARgamma LBD transfected in mouse embryo fibroblasts at 100 uM after 18 hrs by Gal4-responsive luciferase reporter gene assay relative to vehicle-treated control
readout.kind: fold change (FC)

Supply reported fold change (FC) belonging to this compound: `CCN(Cc1cccc(C(=O)N(CC)Cc2ccc(CCC(=O)O)cc2)c1)C(=O)c1ccccc1` 11.2

Supply reported fold change (FC) belonging to this compound: `CCN(Cc1ccc(C(=O)N(CC)Cc2ccc(CCC(=O)O)cc2)cc1)C(=O)c1ccccc1` 7.3

Supply reported fold change (FC) belonging to this compound: `CC(C)N(Cc1cccc(C(=O)NCc2ccc(CCC(=O)O)cc2)c1)C(=O)c1ccccc1` 7.3

Supply reported fold change (FC) belonging to this compound: `CCN(Cc1ccc(CCC(=O)O)cc1)C(=O)c1cccc(CN(C(=O)c2ccccc2)C(C)C)c1` 6.2

Supply reported fold change (FC) belonging to this compound: `CCN(Cc1ccc(C(=O)NCc2ccc(CCC(=O)O)cc2)cc1)C(=O)c1ccccc1` 6

I = O=C(O)CCc1ccc(CNC(=O)c2cccc(CNC(=O)c3ccccc3)c2)cc1
II = CCN(Cc1ccc(CCC(=O)O)cc1)C(=O)c1cccc(CNC(=O)c2ccccc2)c1
III = O=C(O)CCc1ccc(CNC(=O)c2ccc(CNC(=O)c3ccccc3)cc2)cc1
IV = CC(C)N(Cc1ccc(CCC(=O)O)cc1)C(=O)c1cccc(CNC(=O)c2ccccc2)c1
Put the entries in order of fold change (FC), starting with the largest number. Put the labels in the requested order and list them out. IV, II, I, III
